pIC50 tested on D(3) dopamine receptor (Homo sapiens, UniProt P35462): recorded values
Sequence (P35462 whole entry): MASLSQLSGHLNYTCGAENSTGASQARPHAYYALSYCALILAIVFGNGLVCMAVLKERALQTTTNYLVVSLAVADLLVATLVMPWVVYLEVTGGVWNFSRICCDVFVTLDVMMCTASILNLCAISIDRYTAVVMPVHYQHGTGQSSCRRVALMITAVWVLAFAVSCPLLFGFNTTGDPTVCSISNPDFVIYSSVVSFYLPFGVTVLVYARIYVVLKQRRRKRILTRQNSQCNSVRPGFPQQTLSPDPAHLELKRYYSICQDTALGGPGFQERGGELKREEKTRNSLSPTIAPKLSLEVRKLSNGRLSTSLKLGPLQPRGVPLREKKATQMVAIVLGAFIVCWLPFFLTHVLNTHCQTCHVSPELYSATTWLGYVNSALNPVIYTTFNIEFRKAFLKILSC
Remember the convention: pIC50 equals -log10 of concentration in molar.

pIC50 measured on `N#Cc1ccc(CCOC(=O)NC2CCN(CCCC(c3ccc(F)cc3)c3ccc(F)cc3)CC2)cc1` = 6.27

Noted for `N#Cc1ccc(CCOC(=O)N2CCN(CCCC(c3ccc(F)cc3)c3ccc(F)cc3)CC2)cc1` : its pIC50 reads 6.71

---

Please consider the recorded pIC50 for 5-hydroxytryptamine receptor 2A (Homo sapiens, UniProt P28223) in what follows.
In textbook form, pIC50 equals minus log to base ten of the concentration in mol/L.

The examples below pair each entry with its known result.
{"columns": ["Entry Smiles", "Observed Value"],
 "data": [
  ["N#Cc1ccc(CCOC(=O)N2CCN(CCCc3ccccc3)CC2)cc1", 6.07],
  ["N#Cc1ccc(CCOC(=O)NC2CCN(CCCC(c3ccc(F)cc3)c3ccc(F)cc3)CC2)cc1", 6.17]
]}

Short answer for `N#Cc1ccc(CCOC(=O)N2CCN(CCCC(c3ccc(F)cc3)c3ccc(F)cc3)CC2)cc1` : pIC50 was 6.15

Sample `CCOc1ccc(CCOC(=O)N2CCN(CCCc3ccccc3)CC2)cc1` ; pIC50 observed: 6.01

pIC50 reported for this compound `CCOc1ccc(CCNC(=O)N2CCN(CCCC(c3ccc(F)cc3)c3ccc(F)cc3)CC2)cc1` : 6.64

GET /value?item= `O=C(CCc1ccc(F)cc1)N1CCN(CCCC(c2ccc(F)cc2)c2ccc(F)cc2)CC1` &field=pIC50 returns 5.99

For reference, reported pIC50 for `O=C(CCCc1ccccc1)N1CCN(CCCC(c2ccc(F)cc2)c2ccc(F)cc2)CC1` stands at 6.02

For this compound ( `O=C(OCCc1ccc(F)cc1)N1CCN(CCCC(c2ccc(F)cc2)c2ccc(F)cc2)CC1` ), measured pIC50 is 5.97

---

Observed pIC50 for D(2) dopamine receptor (Homo sapiens), reported per entry below.
Remember, pIC50 is on a log scale: it is -log10 of the molar concentration.

Solved cases (3 shown):
{"columns": ["Entry Smiles", "pIC50"],
 "data": [
  ["N#Cc1ccc(CCOC(=O)N2CCN(CCCC(c3ccc(F)cc3)c3ccc(F)cc3)CC2)cc1", 5.65],
  ["CCOc1ccc(CCNC(=O)N2CCN(CCCC(c3ccc(F)cc3)c3ccc(F)cc3)CC2)cc1", 5.54],
  ["N#Cc1ccc(CCOC(=O)NC2CCN(CCCC(c3ccc(F)cc3)c3ccc(F)cc3)CC2)cc1", 6.26]
]}

Shifting focus to the compound that follows.
Summary: `O=C(OCCc1ccc(F)cc1)N1CCN(CCCC(c2ccc(F)cc2)c2ccc(F)cc2)CC1` , D(2) dopamine receptor (Homo sapiens), pIC50 = 5.58

---

# pIC50 per entry for Histamine H1 receptor (Homo sapiens, UniProt P35367)
Interpret pIC50 as the negative base-10 log of the concentration measured in mol/L.

Record excerpt, results attached:
{"columns": ["Entry Smiles", "Target System", "Measured Property", "Observed Value"],
 "data": [
  ["O=C(CCCc1ccccc1)N1CCN(CCCC(c2ccc(F)cc2)c2ccc(F)cc2)CC1", "Histamine H1 receptor (Homo sapiens, UniProt P35367)", "pIC50", 5.71],
  ["N#Cc1ccc(CCOC(=O)NC2CCN(CCCC(c3ccc(F)cc3)c3ccc(F)cc3)CC2)cc1", "Histamine H1 receptor (Homo sapiens, UniProt P35367)", "pIC50", 6.34],
  ["N#Cc1ccc(CCOC(=O)N2CCN(CCCc3ccccc3)CC2)cc1", "Histamine H1 receptor (Homo sapiens, UniProt P35367)", "pIC50", 6.55],
  ["O=C(CCc1ccc(F)cc1)N1CCN(CCCC(c2ccc(F)cc2)c2ccc(F)cc2)CC1", "Histamine H1 receptor (Homo sapiens, UniProt P35367)", "pIC50", 5.78],
  ["O=C(OCCc1ccc(F)cc1)N1CCN(CCCC(c2ccc(F)cc2)c2ccc(F)cc2)CC1", "Histamine H1 receptor (Homo sapiens, UniProt P35367)", "pIC50", 5.89],
  ["CCOc1ccc(CCNC(=O)N2CCN(CCCC(c3ccc(F)cc3)c3ccc(F)cc3)CC2)cc1", "Histamine H1 receptor (Homo sapiens, UniProt P35367)", "pIC50", 5.74]
]}

pIC50 for Histamine H1 receptor (Homo sapiens, UniProt P35367) with input `N#Cc1ccc(CCOC(=O)N2CCN(CCCC(c3ccc(F)cc3)c3ccc(F)cc3)CC2)cc1` equals 6.10

---

- Target System: Substance-P receptor (Homo sapiens, UniProt P25103)
- Sequence (P25103 whole entry): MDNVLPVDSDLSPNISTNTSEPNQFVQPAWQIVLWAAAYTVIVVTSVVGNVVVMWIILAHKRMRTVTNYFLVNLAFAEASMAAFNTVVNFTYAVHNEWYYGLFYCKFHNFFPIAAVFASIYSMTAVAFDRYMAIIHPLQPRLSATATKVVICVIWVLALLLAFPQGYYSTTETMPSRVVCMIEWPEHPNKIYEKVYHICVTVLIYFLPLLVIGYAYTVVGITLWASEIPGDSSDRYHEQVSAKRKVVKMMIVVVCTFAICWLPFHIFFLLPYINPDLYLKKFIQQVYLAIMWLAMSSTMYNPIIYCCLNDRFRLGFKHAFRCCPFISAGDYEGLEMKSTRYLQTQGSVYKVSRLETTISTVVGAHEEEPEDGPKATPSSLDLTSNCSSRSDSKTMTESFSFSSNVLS
Measured Property: pIC50
On this scale, pIC50 is minus log10 of a concentration expressed in M (mol/L).

Noted pIC50 for `CCOc1ccc(CCNC(=O)N2CCN(CCCC(c3ccc(F)cc3)c3ccc(F)cc3)CC2)cc1` , tested on Substance-P receptor (Homo sapiens, UniProt P25103): 6.08

---

For 5-hydroxytryptamine receptor 7 (Homo sapiens), measured pIC50 is reported for the entries below.
Please keep in mind that pIC50 is minus log10 of the molar concentration; only the number is needed.

These solved cases illustrate the format of a correct answer.
{"columns": ["Entry Smiles", "Target System", "pIC50"],
 "data": [
  ["O=C(CCCc1ccccc1)N1CCN(CCCC(c2ccc(F)cc2)c2ccc(F)cc2)CC1", "5-hydroxytryptamine receptor 7 (Homo sapiens)", 5.67],
  ["O=C(OCCc1ccc(F)cc1)N1CCN(CCCC(c2ccc(F)cc2)c2ccc(F)cc2)CC1", "5-hydroxytryptamine receptor 7 (Homo sapiens)", 6.14],
  ["N#Cc1ccc(CCOC(=O)NC2CCN(CCCC(c3ccc(F)cc3)c3ccc(F)cc3)CC2)cc1", "5-hydroxytryptamine receptor 7 (Homo sapiens)", 6.00],
  ["O=C(CCc1ccc(F)cc1)N1CCN(CCCC(c2ccc(F)cc2)c2ccc(F)cc2)CC1", "5-hydroxytryptamine receptor 7 (Homo sapiens)", 5.93],
  ["N#Cc1ccc(CCOC(=O)N2CCN(CCCC(c3ccc(F)cc3)c3ccc(F)cc3)CC2)cc1", "5-hydroxytryptamine receptor 7 (Homo sapiens)", 5.84]
]}

5-hydroxytryptamine receptor 7 (Homo sapiens) pIC50 of `CCOc1ccc(CCOC(=O)N2CCN(CCCc3ccccc3)CC2)cc1` is 5.84

The observed pIC50 for `CCOc1ccc(CCNC(=O)N2CCN(CCCC(c3ccc(F)cc3)c3ccc(F)cc3)CC2)cc1` when tested with 5-hydroxytryptamine receptor 7 (Homo sapiens) stands at 5.69

---

- Target System: Melatonin receptor type 1A (Homo sapiens)
- Sequence (P48039 whole entry): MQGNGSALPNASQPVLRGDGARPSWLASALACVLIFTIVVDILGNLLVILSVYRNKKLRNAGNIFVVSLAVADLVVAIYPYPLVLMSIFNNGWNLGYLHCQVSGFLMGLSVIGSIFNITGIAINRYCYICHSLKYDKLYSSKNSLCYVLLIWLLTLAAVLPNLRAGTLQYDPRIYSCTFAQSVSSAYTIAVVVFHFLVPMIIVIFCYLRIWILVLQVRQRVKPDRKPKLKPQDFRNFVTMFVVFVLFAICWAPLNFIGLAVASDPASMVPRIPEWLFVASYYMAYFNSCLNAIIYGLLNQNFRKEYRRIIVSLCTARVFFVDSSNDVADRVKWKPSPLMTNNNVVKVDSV
Measured Property: pIC50
Scale note: pIC50 = -log10(concentration in M).

Measured pIC50 for this entry `O=C(OCc1cc2c(cc1Cl)OCO2)N1CCC(n2c(O)nc3ccccc32)CC1` on Melatonin receptor type 1A (Homo sapiens): 5.76

---

- Target System: UniProt P21452
- Sequence (P21452 whole entry): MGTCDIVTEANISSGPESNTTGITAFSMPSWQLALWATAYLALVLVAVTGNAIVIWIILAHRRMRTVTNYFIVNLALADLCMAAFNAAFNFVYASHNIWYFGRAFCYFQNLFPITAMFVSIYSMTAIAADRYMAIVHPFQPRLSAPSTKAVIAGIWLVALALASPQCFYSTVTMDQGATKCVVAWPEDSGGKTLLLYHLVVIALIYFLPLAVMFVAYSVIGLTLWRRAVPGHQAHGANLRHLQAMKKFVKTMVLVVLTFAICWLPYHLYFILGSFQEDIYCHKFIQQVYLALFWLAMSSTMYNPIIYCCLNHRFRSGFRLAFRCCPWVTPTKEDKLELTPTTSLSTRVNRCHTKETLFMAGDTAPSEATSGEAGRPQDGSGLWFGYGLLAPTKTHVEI
Measured Property: IC50 (µM)
Kindly provide the numeric value in µM only, without the unit symbol.

{"columns": ["Entry Smiles", "Unit Spec", "IC50"],
 "data": [
  ["CCOc1ccc(CCNC(=O)N2CCN(CCCC(c3ccc(F)cc3)c3ccc(F)cc3)CC2)cc1", "µM", 5.18]
]}

Value of IC50 reported for the compound `O=C(OCc1cc2c(cc1Cl)OCO2)N1CCC(n2c(O)nc3ccccc32)CC1` is 4.42

---

Measured IC50 (5-hydroxytryptamine receptor 2C (Homo sapiens, UniProt P28335))
Kindly provide the numeric value in nM only, without the unit symbol.

{"columns": ["Compound", "IC50 / nM"],
 "data": [
  ["O=C(OCCc1ccc(F)cc1)N1CCN(CCCC(c2ccc(F)cc2)c2ccc(F)cc2)CC1", 3450]
]}

Item: `O=C(CCCc1ccccc1)N1CCN(CCCC(c2ccc(F)cc2)c2ccc(F)cc2)CC1` | IC50: 4070

Field IC50 (entry `CCOc1ccc(CCNC(=O)N2CCN(CCCC(c3ccc(F)cc3)c3ccc(F)cc3)CC2)cc1` ) reads 1420

---

Here's a batch of molecules along with measured IC50 for 5-hydroxytryptamine receptor 6 (Homo sapiens, UniProt P50406).
Enter your answer as a number in nM; do not include the unit.

Worked cases, answers included:
{"columns": ["Entry Smiles", "Unit Spec", "Observed Value"],
 "data": [
  ["N#Cc1ccc(CCOC(=O)NC2CCN(CCCC(c3ccc(F)cc3)c3ccc(F)cc3)CC2)cc1", "nM", 427],
  ["O=C(OCCc1ccc(F)cc1)N1CCN(CCCC(c2ccc(F)cc2)c2ccc(F)cc2)CC1", "nM", 1530],
  ["CCOc1ccc(CCNC(=O)N2CCN(CCCC(c3ccc(F)cc3)c3ccc(F)cc3)CC2)cc1", "nM", 800],
  ["N#Cc1ccc(CCOC(=O)N2CCN(CCCC(c3ccc(F)cc3)c3ccc(F)cc3)CC2)cc1", "nM", 2280],
  ["O=C(CCCc1ccccc1)N1CCN(CCCC(c2ccc(F)cc2)c2ccc(F)cc2)CC1", "nM", 7780]
]}

As a next step, examine the molecule that follows.
Sure, the documented IC50 for `O=C(CCc1ccc(F)cc1)N1CCN(CCCC(c2ccc(F)cc2)c2ccc(F)cc2)CC1` is 1350

Values were extracted from ChEMBL document CHEMBL1134625.
